# system.name: T1, human IL4 (human, UniProt P05112 25-153, biotinylated in the SPR and competition assays (sites not given))
# T1 sequence: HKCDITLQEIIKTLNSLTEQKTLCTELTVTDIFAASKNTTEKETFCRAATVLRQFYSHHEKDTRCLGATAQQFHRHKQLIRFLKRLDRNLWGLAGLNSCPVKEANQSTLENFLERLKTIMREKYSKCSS
# assay.details: cell-based or functional assay
Measured HEK stat6 hIL4 IC50 by item
Mention the unit after the number when you answer.

Known results for binders:
[[record]]
binder = "C01_6G9_V1_C06_28E5_V1 (designed binder, bispecific IL13/IL4 ankyrin repeat protein with (GGGGS)4 linker; also called bispecific AR protein) DLDKKLLEAARAGQDDEVRILMANGADVNARDSYGSTPLHLAAREGHLEIVEVLLKYGADVNAADFIGDTPLHLAAYRGHLEIVEVLLKYGADVNASDITGETPLHLAAQIGHLEIVEVLLKHGADVNAQDKFGKTAFDISIDNGNEDLAEILQKLGGGGSGGGGSGGGGSGGGGSRSDLGKKLLEAARAGQDDEVRILMANGADVNAADDSGITPLHLAAEDGHLEIVEVLLKAGADVNAQDNLGDTPLHLAAWTGHLEIVEVLLKAGADVNAYDISGITPLHLAAFYGHLEIVEVLLKHGADVNAQDKFGKTAFDISIDNGNEDLAEILQKLN"
endpoint_result = "2 pM"

[[record]]
binder = "C06_28E5_V1_C01_6G9_V1 (designed binder, bispecific IL4/IL13 ankyrin repeat protein with (GGGGS)4 linker; also called bispecific AR protein) DLGKKLLEAARAGQDDEVRILMANGADVNAADDSGITPLHLAAEDGHLEIVEVLLKAGADVNAQDNLGDTPLHLAAWTGHLEIVEVLLKAGADVNAYDISGITPLHLAAFYGHLEIVEVLLKHGADVNAQDKFGKTAFDISIDNGNEDLAEILQKLNGGGGSGGGGSGGGGSGGGGSDLDKKLLEAARAGQDDEVRILMANGADVNARDSYGSTPLHLAAREGHLEIVEVLLKYGADVNAADFIGDTPLHLAAYRGHLEIVEVLLKYGADVNASDITGETPLHLAAQIGHLEIVEVLLKHGADVNAQDKFGKTAFDISIDNGNEDLAEILQKLN"
endpoint_result = "1.1 pM"


Returns the measured HEK stat6 hIL4 IC50 for the input binder. Input: C06_53G6_V1_C01_6G9_V1 (designed binder, bispecific IL4/IL13 ankyrin repeat protein with (GGGGS)4 linker; also called bispecific AR protein) DLGKKLLEAARAGQDDEVRILMANGADVNATDDWGDTLLHLAATDGHLEIVEVLLKAGADVNANDAIGDTPLHLAALYGHLEIVEVLLKYGADVNATDLHGFTPLHLAAFWGHLEIVEVLLKHGADVNAQDKFGKTAFDISIDNGNEDLAEILQKLNGGGGSGGGGSGGGGSGGGGSDLDKKLLEAARAGQDDEVRILMANGADVNARDSYGSTPLHLAAREGHLEIVEVLLKYGADVNAADFIGDTPLHLAAYRGHLEIVEVLLKYGADVNASDITGETPLHLAAQIGHLEIVEVLLKHGADVNAQDKFGKTAFDISIDNGNEDLAEILQKLN
3.9 pM

Can you check C01_6G9_V1_C06_44C12_V2 (designed binder, bispecific IL13/IL4 ankyrin repeat protein with (GGGGS)4 linker; also called bispecific AR protein) DLDKKLLEAARAGQDDEVRILMANGADVNARDSYGSTPLHLAAREGHLEIVEVLLKYGADVNAADFIGDTPLHLAAYRGHLEIVEVLLKYGADVNASDITGETPLHLAAQIGHLEIVEVLLKHGADVNAQDKFGKTAFDISIDNGNEDLAEILQKLNGGGGSGGGGSGGGGSGGGGSDLGKKLLEAASAGQDDEVHILMANGADVNALDDSGYTPLHLAAEDGHLEIVEVLLKHGADVNAADRLGDTPLHLAAFVGHLEIVEVLLKAGADVNAVDLAGVTPLHVAAFYGHLEIVEVLLKAGADVNAQDKFGKTAFDISIDNGNEDLAEILQKLN next?
7.2 pM

Now consider C06_44C12_V2_C01_6G9_V1 (designed binder, bispecific IL4/IL13 ankyrin repeat protein with (GGGGS)4 linker; also called bispecific AR protein) DLGKKLLEAASAGQDDEVHILMANGADVNALDDSGYTPLHLAAEDGHLEIVEVLLKHGADVNAADRLGDTPLHLAAFVGHLEIVEVLLKAGADVNAVDLAGVTPLHVAAFYGHLEIVEVLLKAGADVNAQDKFGKTAFDISIDNGNEDLAEILQKLNGGGGSGGGGSGGGGSGGGGSDLDKKLLEAARAGQDDEVRILMANGADVNARDSYGSTPLHLAAREGHLEIVEVLLKYGADVNAADFIGDTPLHLAAYRGHLEIVEVLLKYGADVNASDITGETPLHLAAQIGHLEIVEVLLKHGADVNAQDKFGKTAFDISIDNGNEDLAEILQKLN and answer again.
0.7 pM
